test system: Fibroblast; assay: Multiplex assay against human fibroblast; type: toxicity, cell-based; conditions: 24 h, 1 µM, compound concentration 1 uM, replicate 1
Would you kindly list Population Pyknosed Nuclei (%) for each of these molecules?
Answer format: numeric, % implied, no suffix.

Given the molecule Cc1nc(Cc2cccc(C(F)(F)F)c2)sc1-c1ccc(C(N)=O)nc1 [TP-024n] , what is its reported Population Pyknosed Nuclei (%)?
32

Continue with CCOc1cc(N2CCC(O)CC2)ccc1Nc1ncc2c(n1)N(C1CCCC1)CCC(=O)N2C
15

Please give the result for CCCn1c(=O)c2[nH]c(C34CC5CC(CC3C5)C4)nc2n(CCC)c1=O [ROLOFYLLINE] too.
23

Queued: COc1ccc(NS(=O)(=O)c2sc3ccc(Cl)cc3c2C)cc1N1CCNCC1.Cl
20

// next record CN(C)CCOc1ccc(-c2nc(-c3ccncc3)c(-c3ccc4c(c3)CC/C4=N\O)[nH]2)cc1 [SB590885]
8

Same question, CC(=O)c1cc(-c2cc(C(=O)NC3CC3)ccc2C)c2ncccn12 this time
29

Follow-up entry: Cc1cn(-c2cc(NC(=O)c3ccc4c(c3)CN(c3cncnc3)C[C@@H]4C)cc(C(F)(F)F)c2)cn1
19

Note, next up: CCc1cc2c(cc1CC)CC(NC[C@H](O)c1ccc(O)c3[nH]c(=O)ccc13)C2 [INDACATEROL]
13

Also need CC(=O)O[C@H]1C(=O)[C@@]2(C)[C@H]([C@H](OC(=O)c3ccccc3)[C@]3(O)C[C@H](OC(=O)[C@H](O)[C@@H](NC(=O)c4ccccc4)c4ccccc4)C(C)=C1C3(C)C)[C@]1(OC(C)=O)CO[C@@H]1C[C@@H]2O [PACLITAXEL] , thanks.
11

Quick one: Nc1nc2c(c(N3CCNCC3)n1)CCC1=C2[C@@H]2CCCC[C@@H]2O1
19

Try this molecule too: CN(C)C/C=C/C(=O)Nc1cc2c(Nc3ccc(F)c(Cl)c3)ncnc2cc1O[C@H]1CCOC1.O=C(O)/C=C\C(=O)O.O=C(O)/C=C\C(=O)O [AFATINIB DIMALEATE]
10

What about CCn1c(-c2nonc2N)nc2cnc(Oc3cccc(NC(=O)c4ccc(OCCN5CCOCC5)cc4)c3)cc21 [GSK-269962A] ?
31

Queued: CNC(=O)c1nn(C)c2c1C(C)(C)Cc1cnc(Nc3ccc(N4CCN(C)CC4)cc3)nc1-2 [MILCICLIB]
14

# iterate: CNc1oc(-c2cccc3ccccc23)nc1C#N
5

Follow-up item: CCC(=O)O[C@]1(C(=O)SCF)[C@H](C)C[C@H]2[C@@H]3C[C@H](F)C4=CC(=O)C=C[C@]4(C)[C@@]3(F)[C@@H](O)C[C@@]21C [FLUTICASONE PROPIONATE]
16

How about c1ccc2oc(-c3csc(C4CCN(Cc5nc6ncccc6[nH]5)CC4)n3)cc2c1 ?
9

Check Cl.Cl.Nc1ncnc2c1c(-c1cccc(OCc3ccccc3)c1)cn2[C@H]1C[C@@H](CN2CCC2)C1 too.
12

# repeat for O=C(O)c1ccc2cc(-c3ccc(O)c(C45CC6CC(CC(C6)C4)C5)c3)ccc2c1 [O-DEMETHYLATED ADAPALENE]
43

Repeat with CNC(=O)c1cc(Oc2ccc(NC(=O)Nc3cc(C(C)(C)C)nn3-c3ccc4ncccc4c3)c(F)c2)ccn1 [REBASTINIB]
11

Repeat with Nc1ccc(C(=O)Nc2cccc(-c3nc(N4CCOCC4)c4oc5ncccc5c4n3)c2)cn1
21

Try this molecule next: COc1cc(N2CCC(N(C)C)CC2)ccc1Nc1ncc(Cl)c(Nc2ccccc2P(C)(C)=O)n1
16

One more molecule: CC(C)N1CCC(C)(C)c2cc(C#Cc3ccc(C(=O)O)cc3)ccc21
11

What do we get for CC(C)Oc1ccc(C(=O)N[C@H](CNC(=O)CN(C)C)Cc2ccc(-c3cn4cccc([C@H](C)O)c4n3)cc2)cc1Cl [GSK-923295A] ?
14

Try this molecule too: CCOc1cc2ncc(C#N)c(Nc3ccc(OCc4cccc(F)c4)c(Cl)c3)c2cc1NC(=O)/C=C/CN(C)C [HKI-357]
18

====

system: HEK-293T; assay: Multiplex assay against HEK293T; format: toxicity, cell-based; settings: human, 24 h, 10 µM, compound concentration 10 uM, replicate 2
OBSERVABLE: Population Hoechst High Intensity Objects (%)
Write the answer as a number in %, unit excluded.

Look up Population Hoechst High Intensity Objects (%) with HEK-293T for this compound: Cc1nc(Cc2cccc(C(F)(F)F)c2)sc1-c1ccc(C(N)=O)nc1 [TP-024n]
10

Then what about the compound CC(C)N1CCC(C)(C)c2cc(C#Cc3ccc(C(=O)O)cc3)ccc21 ?
46

Please give the result for COc1cc2c(NC3CCN(C(C)C)CC3)nc(N3CCC(F)(F)CC3)nc2cc1OCCCN1CCCC1 too.
14

Can you check COc1ccc(NS(=O)(=O)c2sc3ccc(Cl)cc3c2C)cc1N1CCNCC1.Cl next?
8

Queued: CC(=O)c1cc(-c2cc(C(=O)NC3CC3)ccc2C)c2ncccn12
3

Follow-up entry: Nc1nc2c(c(N3CCNCC3)n1)CCC1=C2[C@@H]2CCCC[C@@H]2O1
16

Moving on to CCOc1cc(N2CCC(O)CC2)ccc1Nc1ncc2c(n1)N(C1CCCC1)CCC(=O)N2C
3

// next record N#Cc1cnc(Nc2cc(NC[C@H]3CNCCO3)c(C(F)(F)F)cn2)cn1
8

Queued: CCCn1c(=O)c2[nH]c(C34CC5CC(CC3C5)C4)nc2n(CCC)c1=O
7

Could you do the same for CNc1oc(-c2cccc3ccccc23)nc1C#N , please?
48

Try the compound CCn1c(-c2nonc2N)nc2cnc(Oc3cccc(NC(=O)c4ccc(OCCN5CCOCC5)cc4)c3)cc21 [GSK-269962A]
6

Please give the result for CC(C)(C)c1cnc(CSc2cnc(NC(=O)C3CCNCC3)s2)o1 too.
14

====

test system: HEK-293T; experiment: Multiplex assay against HEK293T; assay type: toxicity, cell-based; details: human, 48 h, 10 µM, compound concentration 10 uM, replicate 2
OBSERVABLE: Population Mitotic Cells (%)
State just the number; it will be interpreted in %.

Request: Population Mitotic Cells (%), test system HEK-293T, entry Cc1cc2c(cc1N1C(=O)c3cccc4c(CCCO)ccc(c34)C1=O)n(C)c(=O)n2C
42

Entry Nc1nc2c(c(N3CCNCC3)n1)CCC1=C2[C@@H]2CCCC[C@@H]2O1 please
25

Here is the next compound: CC(=O)c1cc(-c2cc(C(=O)NC3CC3)ccc2C)c2ncccn12
82

====

tested on: HEK-293T; experiment: Multiplex assay against HEK293T; format: toxicity, cell-based; conditions: human, 24 h, 10 µM, compound concentration 10 uM, replicate 2
Threshold check on Population Normal (%): strictly below 90% is class 1; on or above 90% is class 0.

Is the reported Population Normal (%) for CCC(=O)O[C@]1(C(=O)SCF)[C@H](C)C[C@H]2[C@@H]3C[C@H](F)C4=CC(=O)C=C[C@]4(C)[C@@]3(F)[C@@H](O)C[C@@]21C [FLUTICASONE PROPIONATE] strictly below 90%?
class 0

And what about the compound Cc1c(Oc2ccc(F)cc2)c(OC(C)C)nn1-c1ccc(C2CC2)cn1 [IPP/CNRS-A019] ?
class 0

Ok, now CN(C)CCOc1ccc(-c2nc(-c3ccncc3)c(-c3ccc4c(c3)CC/C4=N\O)[nH]2)cc1 [SB590885]
class 0

Another compound to look at: CNC(=O)c1cc(Oc2ccc(NC(=O)Nc3cc(C(C)(C)C)nn3-c3ccc4ncccc4c3)c(F)c2)ccn1 [REBASTINIB]
class 0

Now give it for CCn1c(-c2nonc2N)nc2cnc(Oc3cccc(NC(=O)c4ccc(OCCN5CCOCC5)cc4)c3)cc21 [GSK-269962A] too.
class 0

Can you handle CCOc1cc2ncc(C#N)c(Nc3ccc(OCc4cccc(F)c4)c(Cl)c3)c2cc1NC(=O)/C=C/CN(C)C [HKI-357] next?
class 0

Query CC(C)(C)c1cnc(CSc2cnc(NC(=O)C3CCNCC3)s2)o1 [BMS-387032] next
class 1

What do you have for CC(C)N1CCC(C)(C)c2cc(C#Cc3ccc(C(=O)O)cc3)ccc21 ?
class 1

Cl.Cl.Nc1ncnc2c1c(-c1cccc(OCc3ccccc3)c1)cn2[C@H]1C[C@@H](CN2CCC2)C1 , same question.
class 1

Consider next the compound CC(=O)c1cc(-c2cc(C(=O)NC3CC3)ccc2C)c2ncccn12 in the same way.
class 0

Ok, now Cc1cc2c(cc1N1C(=O)c3cccc4c(CCCO)ccc(c34)C1=O)n(C)c(=O)n2C
class 0

Query Nc1nc2c(c(N3CCNCC3)n1)CCC1=C2[C@@H]2CCCC[C@@H]2O1 next
class 1

Query COc1cc2c(Nc3ccc(NC(=O)c4ccccc4)cc3)ncnc2cc1OCCCN1CCOCC1 next
class 0

Another compound to look at: CNc1oc(-c2cccc3ccccc23)nc1C#N
class 1
